Tested on: HepG2 hepatoma cells
Experiment: Anti-tumor activity in vitro, MTT method, HepG2
Type: cell-based, human
Conditions: Homo sapiens; HepG2, 72 h, MTT; read-out: IC50 HepG2 72 h
IC50 reference
Lab book: enter the figure in µM, no units written.

Could you tell me which IC50 is on file for COc1ccc(-c2oc3c(CC=C(C)C)c(O)cc(O)c3c(=O)c2OC(=O)CCC(=O)OCCN(CCOCc2cn(CCOCCO[C@H]3O[C@@H](CO)[C@H](O)[C@@H](O)[C@@H]3O)nn2)c2ccccc2)cc1 ?
7.69

What value of IC50 has been reported for the following molecule? COc1ccc(-c2oc3c(CC=C(C)C)c(O)cc(O)c3c(=O)c2O)cc1 [Icaritin, reference compound]
16.1

Which IC50 value belongs to COc1ccc(-c2oc3c(CC=C(C)C)c(O)cc(O)c3c(=O)c2OC(=O)CCC(=O)OCCOCCOCCOCCOCc2cn(CCO[C@H]3O[C@@H](CO)[C@H](O)[C@@H](O)[C@@H]3O)nn2)cc1 ?
7.09
